Recorded MIC by entry
tested on: Streptococcus mutans; assay: Antibacterial activity against Streptococcus mutans ATCC 25175 assessed as reduction in microbial growth after 24 hrs by agar well diffusion assay; format: functional; conditions: ATCC 25175, 24 h
Respond with the bare value in µg/mL.

Answered cases to consult:
Input: Given `CCCCCCC1=C(O)C(=O)C(CCCCC)=CC1=O` , state its recorded MIC.
Output: 66.7

Input: Likewise for `CCCCCCCc1cc(O)c(CCCCCC)c(O)c1` ?
Output: 33.4

Input: Likewise for `CCCCCCC1=C(O)C(=O)C(CCCCC)=C(C2=C(CCCCC)C(=O)C(O)=C(CCCCCC)C2=O)C1=O` ?
Output: 133

Input: Likewise for `CCCCCCC1=C(O)C(=O)C(CCCCC)=C(c2c(CCCCC)cc(O)c(CCCCCC)c2O)C1=O` ?
Output: 133

Input: Likewise for `CC1(C)S[C@@H]2[C@H](NC(=O)Cc3ccccc3)C(=O)N2[C@H]1C(=O)O` ?
Output: 1.1

New cases:
Input: Given CCCCCCCC1=CC(O)(C(=O)CCCCCC)OC1=O (centres undefined) , state its recorded MIC.
Output: 133

Input: Likewise for `CCCCCCCC1=CC(=O)C(CCCCCC)=C(O)C1=O` ?
Output: 133

Input: Likewise for CCCCCCC(=O)C1(O)C=C(CCCCC)C(=O)O1 (centres undefined) ?
Output: 133

Input: Likewise for `CCCCCCc1c(O)cc(CCCCC)cc1O` ?
Output: 4.2
